Each recorded value in this set is attributed to patent US20070197525A1.

- study_target: human dopamine D2L receptor (Homo sapiens, UniProt P14416)
- Construct: expressed in transfected cells; host or cells: CHO cells (frozen membranes)
- Sequence (P14416 whole entry): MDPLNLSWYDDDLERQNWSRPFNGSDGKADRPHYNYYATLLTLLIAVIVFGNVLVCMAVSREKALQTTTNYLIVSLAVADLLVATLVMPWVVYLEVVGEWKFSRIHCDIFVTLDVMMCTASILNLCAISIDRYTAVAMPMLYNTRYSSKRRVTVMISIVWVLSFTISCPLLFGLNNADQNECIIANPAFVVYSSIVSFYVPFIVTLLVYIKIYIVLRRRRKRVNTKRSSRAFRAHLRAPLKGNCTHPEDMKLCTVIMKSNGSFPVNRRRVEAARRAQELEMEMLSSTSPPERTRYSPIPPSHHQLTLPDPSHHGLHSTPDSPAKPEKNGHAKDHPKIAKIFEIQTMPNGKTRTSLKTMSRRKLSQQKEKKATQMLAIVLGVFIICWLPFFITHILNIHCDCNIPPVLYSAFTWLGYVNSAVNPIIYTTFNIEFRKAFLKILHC
- method_notes: In vitro assay for D2 receptor binding
- applied_conditions: membranes of human D2L-transfected CHO cells, [3H]Spiperone radioligand; read-out: D2 (pIC50) (converted)

| molecule | IC50 |
| --- | --- |
| C[C@@H]1c2ccccc2[C@H]2C[C@H](CN(C)C)O[C@@H]2c2cc(F)ccc21 [Compound 66] | 0.316 µM |
| C=C1c2ccc(F)cc2C2CC(CN(C)C)OC2c2cc(F)ccc21 (centres unmarked) [Compound 29] | > 1 µM |
| C=C1c2ccccc2[C@@H]2C[C@@H](CNC)O[C@H]2c2cc(F)ccc21 [Compound 95] | 6.31 µM |
| CNC[C@H]1C[C@H]2c3cc(F)ccc3C(C)c3ccccc3[C@@H]2O1 (mixture of isomers) [Compound 102] | 7.94 µM |
| CNCC1CC2c3ccccc3C(C)c3ccc(F)cc3C2O1 (single isomer, unassigned) [Compound 100] | > 10 µM |
| CC1c2ccc(F)cc2C2CC(CN(C)C)OC2c2cc(F)ccc21 (centres unmarked) [Compound 77] | > 1 µM |
| CNC[C@H]1C[C@@H]2c3ccccc3[C@@H](OC(C)C)c3ccc(F)cc3[C@H]2O1 [Compound 63] | > 10 µM |
| CCNC[C@H]1C[C@@H]2c3ccccc3[C@@H](OC)c3ccc(F)cc3[C@H]2O1 [Compound 110] | > 10 µM |

###

- study_target: human dopamine D2L receptor (Homo sapiens)
- Construct: expressed in transfected cells; host or cells: CHO cells (frozen membranes)
- method_notes: In vitro assay for D2 receptor binding
- applied_conditions: membranes of human D2L-transfected CHO cells, [3H]Spiperone radioligand; read-out: D2 (pIC50) (converted)

| molecule | study_target | value_prefix | IC50 [nM] |
| --- | --- | --- | --- |
| CN(C)C[C@H]1C[C@@H]2c3ccccc3[C@](C)(O)c3ccc(F)cc3[C@H]2O1 | human dopamine D2L receptor (Homo sapiens) | > | 1000 |
| CCNCC1CC2c3ccccc3C(C)(O)c3ccc(F)cc3C2O1 (single isomer, unassigned) | human dopamine D2L receptor (Homo sapiens) | = | 2000 |
| CCNC[C@H]1C[C@@H]2c3ccccc3[C@H](O)c3ccc(F)cc3[C@H]2O1 | human dopamine D2L receptor (Homo sapiens) | = | 1580 |
| COC1c2ccccc2C2CC(CNCc3ccccc3)OC2c2cc(F)ccc21 (centres unmarked) | human dopamine D2L receptor (Homo sapiens) | = | 3160 |
| CNC[C@H]1C[C@@H]2c3cc(F)ccc3[C@@H](C)c3ccccc3[C@H]2O1 | human dopamine D2L receptor (Homo sapiens) | = | 3980 |
| C=C1c2ccc(F)cc2C2CC(CNC)OC2c2ccccc21 (single isomer, unassigned) | human dopamine D2L receptor (Homo sapiens) | = | 5010 |
| CCNC[C@H]1C[C@@H]2c3ccccc3[C@@H](O)c3ccc(F)cc3[C@H]2O1 (relative stereo) | human dopamine D2L receptor (Homo sapiens) | = | 1260 |
| CNCC1CC2c3cc(F)ccc3C(C)(O)c3ccccc3C2O1 (single isomer, unassigned) | human dopamine D2L receptor (Homo sapiens) | > | 10000 |

###

- study_target: norepinephrine transporter (NET) (Rattus norvegicus, UniProt Q63380)
- Construct: Cortex from rat brain was collected and homogenised; from tissue; host or cells: rat brain cortex membranes
- Sequence (Q63380 1-617): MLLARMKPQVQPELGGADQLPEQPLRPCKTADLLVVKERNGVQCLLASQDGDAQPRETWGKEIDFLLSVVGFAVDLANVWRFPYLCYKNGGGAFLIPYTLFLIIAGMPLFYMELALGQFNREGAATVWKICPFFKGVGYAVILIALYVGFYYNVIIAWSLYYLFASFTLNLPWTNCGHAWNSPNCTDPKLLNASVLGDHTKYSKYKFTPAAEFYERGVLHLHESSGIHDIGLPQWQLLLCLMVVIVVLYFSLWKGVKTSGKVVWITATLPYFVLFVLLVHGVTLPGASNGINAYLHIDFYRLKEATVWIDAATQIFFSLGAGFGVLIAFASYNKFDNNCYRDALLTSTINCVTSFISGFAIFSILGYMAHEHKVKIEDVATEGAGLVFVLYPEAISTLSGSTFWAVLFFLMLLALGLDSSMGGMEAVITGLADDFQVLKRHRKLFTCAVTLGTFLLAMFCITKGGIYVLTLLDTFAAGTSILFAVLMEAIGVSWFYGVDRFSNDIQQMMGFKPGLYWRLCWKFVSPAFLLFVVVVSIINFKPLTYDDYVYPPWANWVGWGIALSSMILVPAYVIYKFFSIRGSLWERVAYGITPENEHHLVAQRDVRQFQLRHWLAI
- method_notes: In vitro assay for NET inhibition (radioligand binding, rat brain cortex)
- applied_conditions: rat brain cortex membranes, [3H]Nixosetine radioligand; read-out: NET-inhibition (pIC50) (converted)
- Description: Cortex from rat brain was collected and homogenised using an Ultra-Turrax T25 and a Dual homogeniser in ice-cold homogenising buffer containing Tris, NaCl and KCl (50 mM, 120 mM and 5 mM, respectively, pH 7.4) prior to dilution to an appropriate protein concentration optimised for specific and non-specific binding. […] Percentage specific bound and competition binding curves were calculated using S-Plus software (Insightful).
Listing of entries alongside the reported IC50.

| compound | unit_text | IC50 |
| --- | --- | --- |
| CC1c2ccc(F)cc2C2CC(CN(C)C)OC2c2cc(F)ccc21 (stereo not drawn) | µM | 0.0316 |
| NC[C@H]1C[C@@H]2c3ccccc3[C@@H](O)c3ccc(F)cc3[C@H]2O1 | µM | 0.2 |
| CNC[C@H]1C[C@@H]2c3cc(F)ccc3[C@@H](C)c3ccccc3[C@H]2O1 | µM | 0.0158 |
| CNCC1CC2c3ccccc3C(C)(O)c3ccc(F)cc3C2O1 (single isomer, unassigned) [Compound 126] | µM | 0.0631 |
| CNCC1CC2c3ccccc3C(C)c3ccc(F)cc3C2O1 (single isomer, unassigned) [Compound 100] | µM | 0.00794 |
| CCNC[C@H]1C[C@@H]2c3ccccc3[C@H](O)c3ccc(F)cc3[C@H]2O1 | µM | 0.158 |
| CN(C)C[C@H]1C[C@@H]2c3ccccc3C(=O)c3ccc(F)cc3[C@H]2O1 | µM | 0.0631 |
| CNCC1CC2c3ccccc3C(C)c3ccc(F)cc3C2O1 (single isomer, unassigned) [Compound 73] | µM | 0.0398 |
| COC1c2ccccc2C2CC(CNCc3ccccc3)OC2c2cc(F)ccc21 (stereo not drawn) | µM | 2 |
